System: NCI-H2023
Assay procedure: relative viability (nuclei count vs DMSO), 5 days (fraction); higher = more cells survive
Condition context: first compound 0.02 µM
Endpoint name: relative viability

[[record]]
compound = "CCNC(=O)c1noc(-c2cc(C(C)C)c(O)cc2O)c1-c1ccc(CN2CCOCC2)cc1 [Luminespib] + O=C(c1cc(Cc2n[nH]c(=O)c3ccccc23)ccc1F)N1CCN(C(=O)C2CC2)CC1 [Olaparib] (partner 8 µM)"
experimental_result = 0.219

[[record]]
compound = "CCNC(=O)c1noc(-c2cc(C(C)C)c(O)cc2O)c1-c1ccc(CN2CCOCC2)cc1 [Luminespib] + Nc1ncn([C@H]2C[C@H](O)[C@@H](CO)O2)c(=O)n1 [Decitabine] (partner 2 µM)"
experimental_result = 0.136

[[record]]
compound = "CN1CCN(CCOc2cc(OC3CCOCC3)c3c(Nc4c(Cl)ccc5c4OCO5)ncnc3c2)CC1 [Saracatinib] + CC(C)C[C@H](NC(=O)[C@H](Cc1ccccc1)NC(=O)c1cnccn1)B(O)O [Bortezomib] (partner 0.002 µM)"
experimental_result = 1.1

[[record]]
compound = "CCNC(=O)c1noc(-c2cc(C(C)C)c(O)cc2O)c1-c1ccc(CN2CCOCC2)cc1 [Luminespib] + CS(=O)(=O)N1CCN(Cc2cc3nc(-c4cccc5[nH]ncc45)nc(N4CCOCC4)c3s2)CC1 [Pictilisib] (partner 1 µM)"
experimental_result = 0.105


* * *

relative viability values, listed per item
Tested on: HCC-827
Assay procedure: relative viability (nuclei count vs DMSO), 5 days (fraction); higher = more cells survive
Condition context: first compound 0.002 µM
Endpoint name: relative viability

[[record]]
molecule = "CCNC(=O)c1noc(-c2cc(C(C)C)c(O)cc2O)c1-c1ccc(CN2CCOCC2)cc1 [Luminespib] + CC1(C)CCC(c2ccc(Cl)cc2)=C(CN2CCN(c3ccc(C(=O)NS(=O)(=O)c4ccc(N[C@H](CCN5CCOCC5)CSc5ccccc5)c(S(=O)(=O)C(F)(F)F)c4)cc3)CC2)C1 [Navitoclax] (partner 0.5 µM)"
experimental_result = 1.07

[[record]]
molecule = "CCNC(=O)c1noc(-c2cc(C(C)C)c(O)cc2O)c1-c1ccc(CN2CCOCC2)cc1 [Luminespib] + CC(=O)Nc1cccc(-n2c(=O)n(C3CC3)c(=O)c3c(Nc4ccc(I)cc4F)n(C)c(=O)c(C)c32)c1 [Trametinib] (partner 0.02 µM)"
experimental_result = 0.533


* * *

Measured relative viability values are reported for all entries that follow.
System: NCI-H1299
Assay procedure: relative viability (nuclei count vs DMSO), 5 days (fraction); higher = more cells survive
Condition context: first compound 6.325 µM
Endpoint name: relative viability

[[record]]
compound = "Cc1csc(=NC2CCCCC2)n1/N=C/c1ccc(O)c(O)c1O [MIM1] + CS(=O)(=O)N1CCN(Cc2cc3nc(-c4cccc5[nH]ncc45)nc(N4CCOCC4)c3s2)CC1 [Pictilisib] (partner 1 µM)"
assay_target = "NCI-H1299"
endpoint_name = "relative viability"
experimental_result = 0.535

[[record]]
compound = "Cc1csc(=NC2CCCCC2)n1/N=C/c1ccc(O)c(O)c1O [MIM1] + C[C@@H](Oc1cc(-c2cnn(C3CCNCC3)c2)cnc1N)c1c(Cl)ccc(F)c1Cl [Crizotinib] (partner 1 µM)"
assay_target = "NCI-H1299"
endpoint_name = "relative viability"
experimental_result = 0.966

[[record]]
compound = "Cc1csc(=NC2CCCCC2)n1/N=C/c1ccc(O)c(O)c1O [MIM1] + CC(C)C[C@H](NC(=O)[C@H](Cc1ccccc1)NC(=O)c1cnccn1)B(O)O [Bortezomib] (partner 0.002 µM)"
assay_target = "NCI-H1299"
endpoint_name = "relative viability"
experimental_result = 0.965

[[record]]
compound = "Cc1csc(=NC2CCCCC2)n1/N=C/c1ccc(O)c(O)c1O [MIM1] + O=C(c1cc(Cc2n[nH]c(=O)c3ccccc23)ccc1F)N1CCN(C(=O)C2CC2)CC1 [Olaparib] (partner 8 µM)"
assay_target = "NCI-H1299"
endpoint_name = "relative viability"
experimental_result = 0.928

